assay.target: HKU1 isolate N1 (genotype A) RBD, wildtype, biotinylated (avi tag) (UniProt Q5MQD0)
experiment: BLI
measurement.conditions: 100 nM TMPRSS2; area under the binding response curve; read off a plot
measured.metric: percent of parent (% WT)
Answer in % WT, number only, no unit symbol.

**Q:** Short answer please: percent of parent, HKU1 isolate N1 (genotype A) RBD, wildtype, biotinylated (avi tag) (UniProt Q5MQD0), entry human TMPRSS2 ectodomain harboring S441, the DS mutation, SUMO and the N249 glycan (self-activating; wildtype of Figure 4C) (from UniProt O15393) S463Y
**A:** 1.5

**Q:** Short answer please: percent of parent, HKU1 isolate N1 (genotype A) RBD, wildtype, biotinylated (avi tag) (UniProt Q5MQD0), entry human TMPRSS2 ectodomain harboring S441, the DS mutation, SUMO and the N249 glycan (self-activating; wildtype of Figure 4C) (from UniProt O15393) T341S
**A:** 85

**Q:** Short answer please: percent of parent, HKU1 isolate N1 (genotype A) RBD, wildtype, biotinylated (avi tag) (UniProt Q5MQD0), entry human TMPRSS2 ectodomain harboring S441, the DS mutation, SUMO and the N249 glycan (self-activating; wildtype of Figure 4C) (from UniProt O15393) R470K
**A:** 1.6

**Q:** Short answer please: percent of parent, HKU1 isolate N1 (genotype A) RBD, wildtype, biotinylated (avi tag) (UniProt Q5MQD0), entry human TMPRSS2 ectodomain harboring S441, the DS mutation, SUMO and the N249 glycan (self-activating; wildtype of Figure 4C) (from UniProt O15393) R409K
**A:** 81

**Q:** Short answer please: percent of parent, HKU1 isolate N1 (genotype A) RBD, wildtype, biotinylated (avi tag) (UniProt Q5MQD0), entry human TMPRSS2 ectodomain harboring S441, the DS mutation, SUMO and the N249 glycan (self-activating; wildtype of Figure 4C) (from UniProt O15393) K340D
**A:** 57

**Q:** Short answer please: percent of parent, HKU1 isolate N1 (genotype A) RBD, wildtype, biotinylated (avi tag) (UniProt Q5MQD0), entry human TMPRSS2 ectodomain harboring S441, the DS mutation, SUMO and the N249 glycan (self-activating; wildtype of Figure 4C) (from UniProt O15393) Y469N
**A:** 10

**Q:** Short answer please: percent of parent, HKU1 isolate N1 (genotype A) RBD, wildtype, biotinylated (avi tag) (UniProt Q5MQD0), entry human TMPRSS2 ectodomain harboring S441, the DS mutation, SUMO and the N249 glycan (self-activating; wildtype of Figure 4C) (from UniProt O15393) S463T
**A:** 2

**Q:** Short answer please: percent of parent, HKU1 isolate N1 (genotype A) RBD, wildtype, biotinylated (avi tag) (UniProt Q5MQD0), entry human TMPRSS2 ectodomain harboring S441, the DS mutation, SUMO and the N249 glycan (self-activating; wildtype of Figure 4C) (from UniProt O15393) R409T
**A:** 79

**Q:** Short answer please: percent of parent, HKU1 isolate N1 (genotype A) RBD, wildtype, biotinylated (avi tag) (UniProt Q5MQD0), entry human TMPRSS2 ectodomain harboring S441, the DS mutation, SUMO and the N249 glycan (self-activating; wildtype of Figure 4C) (from UniProt O15393) S412N; Y469L
**A:** 81

----------
I'd appreciate it if you could supply response values for the items below.
assay.target: HKU1 isolate N1 (genotype A) RBD, wildtype, biotinylated (avi tag) (UniProt Q5MQD0)
experiment: BLI
measurement.conditions: 100 nM TMPRSS2 mutants for 200 seconds followed by dissociation for 400 seconds; RBD on SA biosensors; value read at 200 s; parent: est. 0.50; read off a plot
Answer in nm, number only, no unit symbol.

**Q:** Need response, item human TMPRSS2 ectodomain with S441 and the C379-T447C disulfide bond (wildtype of Figure 2F) (from UniProt O15393) R470A
**A:** 0.14

**Q:** Need response, item human TMPRSS2 ectodomain with S441 and the C379-T447C disulfide bond (wildtype of Figure 2F) (from UniProt O15393) Y414A
**A:** 0.1

**Q:** Need response, item human TMPRSS2 ectodomain with S441 and the C379-T447C disulfide bond (wildtype of Figure 2F) (from UniProt O15393) Y469A
**A:** 0.36

**Q:** Need response, item human TMPRSS2 ectodomain with S441 and the C379-T447C disulfide bond (wildtype of Figure 2F) (from UniProt O15393) W461A
**A:** 0

----------
assay.target: HKU1 isolate N1 (genotype A) RBD, wildtype, biotinylated (avi tag)
experiment: BLI
measurement.conditions: 100 nM TMPRSS2; area under the binding response curve; read off a plot
I'd appreciate it if you could supply percent of parent values for the items below.
Kindly format the answer as number then unit.

**Q:** Need percent of parent, item human TMPRSS2 ectodomain harboring S441, the DS mutation, SUMO and the N249 glycan (self-activating; wildtype of Figure 4C) (from UniProt O15393) S412N
**A:** 110 % WT

**Q:** Need percent of parent, item human TMPRSS2 ectodomain harboring S441, the DS mutation, SUMO and the N249 glycan (self-activating; wildtype of Figure 4C) (from UniProt O15393) A468P
**A:** 95 % WT

**Q:** Need percent of parent, item human TMPRSS2 ectodomain harboring S441, the DS mutation, SUMO and the N249 glycan (self-activating; wildtype of Figure 4C) (from UniProt O15393) S463F
**A:** 1.6 % WT

**Q:** Need percent of parent, item human TMPRSS2 ectodomain harboring S441, the DS mutation, SUMO and the N249 glycan (self-activating; wildtype of Figure 4C) (from UniProt O15393) D417N
**A:** 15 % WT

**Q:** Need percent of parent, item human TMPRSS2 ectodomain harboring S441, the DS mutation, SUMO and the N249 glycan (self-activating; wildtype of Figure 4C) (from UniProt O15393) Y414R
**A:** 3.9 % WT

**Q:** Need percent of parent, item human TMPRSS2 ectodomain harboring S441, the DS mutation, SUMO and the N249 glycan (self-activating; wildtype of Figure 4C) (from UniProt O15393) Y414S
**A:** 28 % WT

**Q:** Need percent of parent, item human TMPRSS2 ectodomain harboring S441, the DS mutation, SUMO and the N249 glycan (self-activating; wildtype of Figure 4C) (from UniProt O15393) Y469L
**A:** 130 % WT

----------
assay.target: HKU1 isolate N1 (genotype A) RBD, wildtype, biotinylated (avi tag)
experiment: BLI
measurement.conditions: 100 nM TMPRSS2; area under the binding response curve; read off a plot
I'd appreciate it if you could supply percent of parent values for the items below.
Answer in % WT, number only, no unit symbol.

**Q:** Need percent of parent, item human TMPRSS2 ectodomain harboring S441, the DS mutation, SUMO and the N249 glycan (self-activating; wildtype of Figure 4C) (from UniProt O15393) L419A
**A:** 4.1

**Q:** Need percent of parent, item human TMPRSS2 ectodomain harboring S441, the DS mutation, SUMO and the N249 glycan (self-activating; wildtype of Figure 4C) (from UniProt O15393) L419M
**A:** 51

----------
assay.target: HKU1 isolate N1 (genotype A) RBD, wildtype, biotinylated (avi tag)
experiment: BLI
measurement.conditions: 100 nM TMPRSS2; area under the binding response curve; read off a plot
measured.metric: percent of parent (% WT)
Answer in % WT, number only, no unit symbol.

**Q:** Need percent of parent, item human TMPRSS2 ectodomain harboring S441, the DS mutation, SUMO and the N249 glycan (self-activating; wildtype of Figure 4C) (from UniProt O15393) V415I
**A:** 71

**Q:** Need percent of parent, item human TMPRSS2 ectodomain harboring S441, the DS mutation, SUMO and the N249 glycan (self-activating; wildtype of Figure 4C) (from UniProt O15393) Y414L
**A:** 2.5

**Q:** Need percent of parent, item human TMPRSS2 ectodomain harboring S441, the DS mutation, SUMO and the N249 glycan (self-activating; wildtype of Figure 4C) (from UniProt O15393) R413V
**A:** 85

**Q:** Need percent of parent, item human TMPRSS2 ectodomain harboring S441, the DS mutation, SUMO and the N249 glycan (self-activating; wildtype of Figure 4C) (from UniProt O15393) R413K
**A:** 77

Origin of values: paper PMC12854727
